Hey, just so you know, these numbers are from PubChem BioAssay (EPA / NIEHS).

- MEASUREMENT TARGET: CCAAT/enhancer-binding protein beta (Homo sapiens)
- ASSAY NOTES: ATG_C_EBP_CIS: Attagene CIS-FACTORIAL HepG2 Assay for human CCAAT/Enhancer Binding Protein (C/EBP) beta (AID 2282927)
- MEASUREMENT CONTEXT: HepG2 Attagene cis-factorial transcription factor reporter; actives raise or lower the signal
Activity calls are given as the source filed them. Rule for the calls: active = hit-call score of the fitted dose curve at least 0.9, where 1 is the maximum; inactive = score below 0.9.
Log the outcome using a class from Yes (active), No (inactive)

Before answering, review these 10 worked examples.
COMPOUND	ASSIGNED CLASS
O=c1c(-c2ccc(O)cc2)coc2cc(O)cc(O)c12	Yes
CN1C(=O)N(c2ccccc2Br)Cc2cnc(Nc3ccc4c(c3)OCC(CO)O4)nc21 (stereo unspecified)	Yes
CC[C@@H]1C[C@H](N(Cc2cc(C(F)(F)F)cc(C(F)(F)F)c2)C(C)=O)c2cc(C(F)(F)F)ccc2N1C(=O)OC(C)C	No
CCCCCCCCCCCO	No
OCCO	No
CCCCCCCCOc1ccc(C(=O)c2ccccc2)c(O)c1	No
O=CCCCC=O	No
NC(=O)c1nc(-c2cccc(-c3cc(F)ccc3OCC(F)(F)C(F)(F)F)c2)n[nH]1	No
Oc1ccc2ccccc2c1	No
CN(C[C@@H](CC[N+]12CCC(C3CCCCC3)(CC1)CC2)c1ccc(Cl)c(Cl)c1)C(=O)c1cc(C(F)(F)F)cc(C(F)(F)F)c1	No

# fetch the recorded call for Cc1cccc2ccccc12 here
No

# fetch the recorded call for O=C(O)Cc1cc(I)c(Oc2ccc(O)c(I)c2)c(I)c1 here
No

# fetch the recorded call for CCN(Cc1cccnc1)C(=O)c1cccc(Cl)c1[C@]1(C)C(=O)N(Cc2ccc(OC)cc2OC)c2ccc(Cl)cc21 here
No

# fetch the recorded call for CCCCCCCCOC(=O)c1cc(O)c(O)c(O)c1 here
No

# fetch the recorded call for CCCCOC(=O)CC(CC(=O)OCCCC)(OC(C)=O)C(=O)OCCCC here
No

# fetch the recorded call for O=C(O)c1ccccc1C(=O)OCc1ccccc1 here
No

# fetch the recorded call for NCc1cccc(C2CCN(C(=O)c3ccc(C#Cc4ccccc4F)o3)CC2)c1 here
Yes

# fetch the recorded call for CCCCCCCCCCCC[N+](C)(C)C here
No

# fetch the recorded call for CCCC(=O)OCCC(C)C here
No

# fetch the recorded call for c1ccc2n[nH]nc2c1 here
No

# fetch the recorded call for CC/C(=C(/CC)c1ccc(O)cc1)c1ccc(O)cc1 here
No

---

- Read-out: Vascular cell adhesion molecule 1 (VCAM1), VCAM1 (gene 7412)
- ASSAY NOTES: BSK_hDFCGF_VCAM1: BioMAP Diversity Plus: hDFCGF Assay for Vascular cell adhesion molecule 1 (VCAM1) Biomarker Activity (AID 2283065);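 for AC50: VCAM-1 protein level quantified by ELISA after 24 h chemical exposure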
- MEASUREMENT CONTEXT: primary human foreskin fibroblasts; actives raise or lower the signal
Activity calls are given as the source filed them. Rule for the calls: active = hit-call score of the fitted dose curve at least 0.9, where 1 is the maximum; inactive = score below 0.9.
READOUT NAME: AC50

The examples below pair each entry with its known result.
COMPOUND	AC50
O=CCCCC=O	20.7 µM (active)
CC/C(=C(/CC)c1ccc(O)cc1)c1ccc(O)cc1	13.6 µM (active)
NC(=O)c1nc(-c2cccc(-c3cc(F)ccc3OCC(F)(F)C(F)(F)F)c2)n[nH]1	35.1 µM (active)
CCCCOC(=O)c1ccc(O)cc1	inactive
CCCCCCCCOc1ccc(C(=O)c2ccccc2)c(O)c1	inactive

Requested field: AC50. Item: Cc1oc2c(NC(=O)c3c(Cl)cccc3Cl)cccc2c1C(C)(C)O
inactive
